- assay notes: physchem
- protocol conditions: water, approximately 1 g equilibrated in 8.5 mL of water at 20° C. for 2 days, centrifuged, uPLC
experimental endpoint: solubility at 2 days (mg/mL)

INSERT INTO measurements (molecule, prefix_operator, measured_result) VALUES
  ('CN1C(=O)[C@H](CCCCN)NC(=O)[C@H](CCCN)NCc2cccnc2Sc2cccc(-c3ccc(C(=O)O)cc3)c2CNC(=O)[C@@H]1Cc1c[nH]c2ccccc12.Cl [Form A family HCl salt]', '=', 124),
  ('CN1C(=O)[C@H](CCCCN)NC(=O)[C@H](CCCN)NCc2cccnc2Sc2cccc(-c3ccc(C(=O)O)cc3)c2CNC(=O)[C@@H]1Cc1c[nH]c2ccccc12 [Form A family free zwitterion]', '<', 1);

The measured values listed here are drawn from patent US20260250316A1.
